Values were extracted from patent US20240084003A1.

// values below are reported OD450
Biological target: T1, human CD22-ECD-His protein (human, UniProt P20273 20-687)
T1 construct: Made in house in HEK293E; also called hCD22-ECD-His; recombinant human CD22-ECD His protein; not shown: His tag
T1 sequence: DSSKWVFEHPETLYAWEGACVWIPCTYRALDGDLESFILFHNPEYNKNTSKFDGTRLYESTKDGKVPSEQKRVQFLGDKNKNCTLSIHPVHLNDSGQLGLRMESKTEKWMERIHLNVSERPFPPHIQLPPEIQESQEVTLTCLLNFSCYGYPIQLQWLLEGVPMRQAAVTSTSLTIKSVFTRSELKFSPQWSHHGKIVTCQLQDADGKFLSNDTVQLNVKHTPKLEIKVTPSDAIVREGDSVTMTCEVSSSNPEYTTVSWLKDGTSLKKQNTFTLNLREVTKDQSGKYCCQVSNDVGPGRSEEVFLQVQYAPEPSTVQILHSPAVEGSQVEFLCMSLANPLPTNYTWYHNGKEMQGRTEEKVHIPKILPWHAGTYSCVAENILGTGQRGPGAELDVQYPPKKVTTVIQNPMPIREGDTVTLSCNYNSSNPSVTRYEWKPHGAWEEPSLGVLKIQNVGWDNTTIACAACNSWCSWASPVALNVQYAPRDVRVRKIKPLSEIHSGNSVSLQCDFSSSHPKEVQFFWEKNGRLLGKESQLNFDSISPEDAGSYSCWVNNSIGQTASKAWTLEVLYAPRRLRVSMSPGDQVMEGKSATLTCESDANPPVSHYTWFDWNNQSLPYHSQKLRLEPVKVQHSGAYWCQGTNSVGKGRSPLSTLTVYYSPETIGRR
Experiment: ELISA, Ab 0.10 nM
The reply should be a number in OD450, with the unit left off.

Field OD450 (entry HA22-hIgG1 (antibody, V domains shown) VH: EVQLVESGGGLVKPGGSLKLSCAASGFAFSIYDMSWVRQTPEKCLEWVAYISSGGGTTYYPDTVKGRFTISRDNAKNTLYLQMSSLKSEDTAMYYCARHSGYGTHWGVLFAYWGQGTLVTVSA VL: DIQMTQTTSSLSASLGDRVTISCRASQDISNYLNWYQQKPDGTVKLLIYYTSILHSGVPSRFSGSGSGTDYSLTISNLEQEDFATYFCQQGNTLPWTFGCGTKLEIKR ) reads 2.57

Measured OD450, F1.216.2 (antibody, human IgG1, kappa, V domains shown, Human-murine chimeric IgG1, kappa) VH: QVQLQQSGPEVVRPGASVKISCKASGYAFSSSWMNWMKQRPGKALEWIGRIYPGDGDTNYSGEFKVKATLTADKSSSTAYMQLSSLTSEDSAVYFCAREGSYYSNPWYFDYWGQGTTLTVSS VL: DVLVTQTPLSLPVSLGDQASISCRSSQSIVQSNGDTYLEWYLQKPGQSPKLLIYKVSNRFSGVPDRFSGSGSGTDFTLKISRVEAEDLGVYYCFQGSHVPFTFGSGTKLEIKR : 2.55

So for F2.42.9 (antibody, human IgG1, lambda, V domains shown, Human-murine chimeric IgG1, lambda) VH: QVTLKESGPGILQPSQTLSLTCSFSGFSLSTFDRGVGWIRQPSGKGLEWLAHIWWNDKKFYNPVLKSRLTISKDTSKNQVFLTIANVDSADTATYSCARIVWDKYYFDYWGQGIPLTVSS VL: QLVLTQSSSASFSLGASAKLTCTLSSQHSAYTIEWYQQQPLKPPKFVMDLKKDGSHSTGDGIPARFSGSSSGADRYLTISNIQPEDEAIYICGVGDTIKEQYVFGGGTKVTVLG , the logged OD450 turned out to be 2.58

Please fill in: OD450 reported for F2.55.1 (antibody, human IgG1, lambda, V domains shown, Human-murine chimeric IgG1, lambda) VH: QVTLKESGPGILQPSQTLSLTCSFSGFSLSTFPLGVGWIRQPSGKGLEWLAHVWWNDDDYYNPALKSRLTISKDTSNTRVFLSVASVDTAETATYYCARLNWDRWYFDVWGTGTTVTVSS VL: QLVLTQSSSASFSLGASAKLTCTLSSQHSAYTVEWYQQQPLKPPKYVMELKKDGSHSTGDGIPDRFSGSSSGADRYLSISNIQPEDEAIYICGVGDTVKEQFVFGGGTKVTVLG = 2.03
